Just for reference, PubChem BioAssay (EPA / NIEHS) is where these values come from.

- target_system: Retinoic acid receptor RXR-alpha (Homo sapiens)
- protocol_text: OT_NURR1_NURR1RXRa_1440: Odyssey Thera (OT) 24-hour HEK293T Protein Complementation Assay for Nurr1/retinoid X receptor (RXR) (AID 2283386)
- Method: OT_NURR1_NURR1RXRa_1440 is a cell-based assay that uses HEK293T, a human kidney cell line, with measurements taken at 24 hours after chemical dosing in a 384-well plate.OT_NURR1_NURR1RXRa_1440 is one of one assay component(s) measured or calculated from the OT_NURR1_NURR1RXRa_1440 assay. […] This assay endpoint, OT_NURR1_NURR1RXRa_1440, was analyzed in the positive analysis fitting direction relative to DMSO as the negative control and baseline of activity. […]
Records with an inconclusive call do not appear. Activity calls are given as the source filed them. How the source made its calls: active means hit-call score of the fitted dose curve at least 0.9, where 1 is the maximum; inconclusive means response in the unintended direction; inactive means score below 0.9.
Pick from 1.0 (active), 0.0 (inactive) when you respond.

Completed entries (count: 4):
molecule=Clc1ccccc1Cl class_name=0.0
molecule=CN(C)[C@@H]1C(=O)C(C(N)=O)=C(O)[C@@]2(O)C(=O)C3=C(O)c4c(O)cccc4[C@@](C)(O)[C@H]3C[C@@H]12 class_name=0.0
molecule=Nc1ccc(Oc2ccc(N)cc2)cc1 class_name=0.0
molecule=Cc1ccc([N+](=O)[O-])cc1 class_name=0.0

State the result this test recorded for CCOc1cccc(C2(N3CCN(c4ccccc4)CC3)CCC(C)CC2)c1 (centres undefined) .
0.0

What would you report for `CCNS(=O)(=O)C(F)(F)C(F)(F)C(F)(F)C(F)(F)C(F)(F)C(F)(F)C(F)(F)C(F)(F)F` ?
0.0
